# measurementTarget: 17β-HSD10 (Homo sapiens)
# Construct: Histev (histidine tag with TEV site) (N, cleaved yes); made in house; host or cells: E. coli BL21-CodonPlus
# Sequence (Q99714 1-261): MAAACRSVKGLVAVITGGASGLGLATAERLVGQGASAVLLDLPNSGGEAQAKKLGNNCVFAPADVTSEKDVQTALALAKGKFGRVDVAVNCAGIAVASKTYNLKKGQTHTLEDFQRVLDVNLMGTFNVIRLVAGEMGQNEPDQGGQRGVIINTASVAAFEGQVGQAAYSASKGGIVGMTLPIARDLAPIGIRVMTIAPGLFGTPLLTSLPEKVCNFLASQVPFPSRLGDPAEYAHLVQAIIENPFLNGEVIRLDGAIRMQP
# assayInfo: 17β-HSD10 (ABAD) enzyme inhibition assay, NADH oxidation read at 340 nm (primary screen and dose response)
# Assay type: biochemical
# runConditions: recombinant 17βHSD10 enzyme assay
Decide by Max. Effect (%): equal to or exceeding 30% means true (1), less means false (0).

Cc1ccsc1C(=O)N(CC(C)C)c1cccc(N(C)Cc2c[nH]cn2)c1    true (1)
O=C(c1sccc1Cl)N1CCC[C@H]1c1ccccc1-c1cccc2[nH]ncc12 (racemic)    true (1)
CC(C)CN(C(=O)c1ccc(Cl)cc1)c1cccc(N(C)Cc2cnc[nH]2)c1    true (1)
CCc1ccc(CN(C)c2cccc(N(CC(C)C)C(=O)c3ccccc3F)c2)cn1    false (0)
CC(C)CN(C(=O)c1ccccc1F)c1cccc(N(C)Cc2cccnc2)c1    true (1)

QUERY: Answer whether Max. Effect (%) of CC(C)CN(C(=O)c1ccccc1F)c1cccc(N(C)Cc2cn3ccccc3n2)c1 is greater than or equal to 30%.
RESULT: false (0)

QUERY: Please indicate if the recorded Max. Effect (%) for COc1cccc(-c2ccccc2[C@H]2CCCN2C(=O)c2sccc2C)c1 (single isomer, unassigned) meets or exceeds 30%.
RESULT: false (0)

QUERY: Please tell me: is the compound O=C(c1sccc1Cl)N1CCC[C@H]1c1ccccc1-c1ccc(F)c(O)c1 (racemic) [ESC1002775] at or over 30% in terms of Max. Effect (%)?
RESULT: true (1)
